Please respond with reported melting point for every item in the list.

// query melting point value for entry CCC(C)(C#Cc1ccccc1)NC(=O)c1cnc2c(C#N)cccc2c1 (centres unmarked) [Compound F-10]
172 to 174 °C

What do we get for Cc1ccccc1C#CC(C)(C)NC(=O)c1cnc2c(F)cccc2c1 [Compound F-47] ?
156 to 160 °C

Same question for C#CC(C)(C)NC(=O)c1cnc2c(F)cccc2c1 [Compound F-54] please.
148 to 150 °C

Moving on to CC(C)(C#Cc1ccccc1)NC(=O)c1cnc2c(F)cccc2c1 [Compound F-55]
151 to 155 °C

What do you have for Cc1ccccc1C#CC(C)(NC(=O)c1cnc2c(F)cccc2c1)C(C)C (centres unmarked) [Compound F-13] ?
138 to 141 °C

Query Cc1nc2c(F)cccc2cc1C(=O)NC(C)(C)C#Cc1ccccc1 [Compound F-50] next
118 to 123 °C

Same question, CC(C)C[C@](C)(C#Cc1ccccc1)NC(=O)c1cnc2c(F)cccc2c1 [Compound G-6] this time
128 to 130 °C

Moving on to the next compound: CC(C)C[C@@](C)(C#Cc1ccccc1)NC(=O)c1cnc2c(F)cccc2c1 [Compound G-5]
124 to 127 °C

Input CC(C)(C#Cc1ccccc1)NC(=O)c1cnc2ccccc2c1 [Compound F-49]
136 to 141 °C

Now this one: CC(C)C(C#Cc1ccccc1)NC(=O)c1cnc2c(F)cccc2c1 (centres unmarked) [Compound F-3]
156 to 158 °C

Here is the next compound: CC(C)CC(C)(C#Cc1ccccc1)NC(=O)c1cnc2c(F)cccc2c1 (centres unmarked) [Compound F-7]
138 to 141 °C

* * *

# Tested on: Fusarium culmorum
# test_details: microbe, parasite or virus in culture
# Type: cell-based
# condition_context: read-out: disease control
Task for the reader: assign each of the following molecules its reported inhibition of growth at 200 ppm.

# get_value(readout= inhibition of growth at 200 ppm, system= Fusarium culmorum) for CCC(C)(C#Cc1ccccc1)NC(=O)c1cnc2c(F)cccc2c1 (stereo not drawn)
≥ 80%

Lookup CC(C)(C#Cc1ccc(F)cc1)NC(=O)c1cnc2c(F)cccc2c1
≥ 80%

Another: COc1ccc(C(F)(F)F)cc1C#CC(C)(C)NC(=O)c1cnc2c(F)cccc2c1
≥ 80%

* * *

observation_type: melting point

Entry under review: CCC(C)(C#Cc1ccccc1)NC(=O)c1cnc2c(Cl)cccc2c1 (stereo not drawn) . Reported melting point?
161 to 162 °C

Now the same for CCC(C)(C#Cc1ccccc1)NC(=O)c1cnc2c(F)cccc2c1 (stereo not drawn)
129 to 132 °C

Now give it for CC(C)C(C#Cc1ccccc1)NC(=O)c1cnc2c(Cl)cccc2c1 (stereo not drawn) too.
168 to 170 °C

Now try CCC(C)(C#Cc1ccccc1)NC(=O)c1cnc2c(C)cccc2c1 (stereo not drawn) .
135 to 137 °C

Field entry: CC(C)C(C)(C#Cc1ccccc1)NC(=O)c1cnc2c(F)cccc2c1 (stereo not drawn)
118 to 122 °C

Same question for CC(C)(C#Cc1cccc(C(F)(F)F)c1)NC(=O)c1cnc2c(F)cccc2c1 please.
181 to 184 °C

What do we get for CC(CC#CC1CC1)(CC(F)(F)F)NC(=O)c1cnc2c(F)cccc2c1 (stereo not drawn) ?
110 to 112 °C

What do we get for CCC(C)(C#Cc1ccccc1C)NC(=O)c1cnc2c(F)cccc2c1 (stereo not drawn) ?
143 to 146 °C

Further, for CC(C)(C)C(C#Cc1ccccc1)NC(=O)c1cnc2c(F)cccc2c1 (stereo not drawn) ?
179 to 181 °C
